Cited source for all entries: ChEMBL document CHEMBL1132976

Reported values: pIC50 for Cytochrome P450 2D6 (Homo sapiens, UniProt P10635), one per item.
pIC50: −log10 of the molar value.
Recorded Metric: pIC50

structure_as_smiles=Cc1cc2c(cc1C(F)(F)F)N(C(=O)Nc1ccc(Oc3cccnc3C)nc1)CC2 value_prefix=< numeric_value=4.00
structure_as_smiles=COc1cc2c(cc1C(F)(F)F)N(C(=O)Nc1cc(F)cc(-c3cccnc3)c1)CC2 value_prefix== numeric_value=4.68

---

Molecular target: Serotonin 2 receptors; 5-HT2a & 5-HT2c (Homo sapiens) (UniProt P28223+P28335)
Sequence (P28223 whole entry, looked up): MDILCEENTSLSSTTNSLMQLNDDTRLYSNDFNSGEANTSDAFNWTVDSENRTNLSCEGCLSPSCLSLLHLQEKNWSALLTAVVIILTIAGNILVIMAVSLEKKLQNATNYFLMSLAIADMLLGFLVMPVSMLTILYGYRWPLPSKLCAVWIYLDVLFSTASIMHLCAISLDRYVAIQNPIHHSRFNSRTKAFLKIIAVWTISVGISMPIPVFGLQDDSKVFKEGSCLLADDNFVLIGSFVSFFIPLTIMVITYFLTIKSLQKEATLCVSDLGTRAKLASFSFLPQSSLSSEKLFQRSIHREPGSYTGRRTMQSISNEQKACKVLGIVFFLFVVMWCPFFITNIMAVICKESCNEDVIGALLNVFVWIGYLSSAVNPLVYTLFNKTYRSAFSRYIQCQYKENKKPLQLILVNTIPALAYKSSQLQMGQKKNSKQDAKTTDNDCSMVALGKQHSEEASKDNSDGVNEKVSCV
Sequence (P28335 whole entry, looked up): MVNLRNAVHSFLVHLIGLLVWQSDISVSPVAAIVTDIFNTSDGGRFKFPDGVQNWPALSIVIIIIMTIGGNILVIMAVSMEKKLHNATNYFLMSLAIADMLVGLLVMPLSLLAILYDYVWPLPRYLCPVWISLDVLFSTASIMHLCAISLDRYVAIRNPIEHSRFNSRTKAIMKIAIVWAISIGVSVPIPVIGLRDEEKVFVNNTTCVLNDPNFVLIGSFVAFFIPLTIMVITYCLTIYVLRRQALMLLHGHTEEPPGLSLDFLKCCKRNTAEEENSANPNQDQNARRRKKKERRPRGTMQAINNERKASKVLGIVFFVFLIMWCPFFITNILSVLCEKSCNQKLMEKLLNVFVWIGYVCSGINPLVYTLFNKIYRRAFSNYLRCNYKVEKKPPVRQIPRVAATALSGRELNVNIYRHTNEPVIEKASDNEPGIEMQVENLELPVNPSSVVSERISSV
Test: Selectivity index determined from binding affinities of 5-HT2C and 5-HT2A.
Assay type: protein assay
Recorded Metric: Selectivity

structure_as_smiles=COc1ccc(NC(=O)N2CCc3cc(OC)c(C(F)(F)F)cc32)cc1-c1cccnc1 recorded_metric=Selectivity value_prefix== numeric_value=400
structure_as_smiles=COc1cc2c(cc1C(F)(F)F)N(C(=O)Nc1cncc(-c3cccnc3)c1)CC2 recorded_metric=Selectivity value_prefix== numeric_value=80
structure_as_smiles=COc1cc2c(cc1C(F)(F)F)N(C(=O)Nc1ccc(Oc3cccnc3)nc1)CC2 recorded_metric=Selectivity value_prefix== numeric_value=80
structure_as_smiles=COc1cc2c(cc1C(F)(F)F)N(C(=O)Nc1cc(Br)cc(-c3cccnc3)c1)CC2 recorded_metric=Selectivity value_prefix=> numeric_value=500
structure_as_smiles=COc1cc2c(cc1C(F)(F)F)N(C(=O)Nc1cncc(-c3ccc(F)cc3)c1)CC2 recorded_metric=Selectivity value_prefix== numeric_value=40
structure_as_smiles=COc1cc2c(cc1C(F)(F)F)N(C(=O)Nc1cc(F)c(C)c(-c3cccnc3)c1)CC2 recorded_metric=Selectivity value_prefix== numeric_value=1600
structure_as_smiles=COc1cc2c(cc1C(F)(F)F)N(C(=O)Nc1cccc(-c3cccnc3)c1)CC2 recorded_metric=Selectivity value_prefix== numeric_value=200
structure_as_smiles=COc1cc2c(cc1C(F)(F)F)N(C(=O)Nc1cncc(-c3cc(F)cc(F)c3)c1)CC2 recorded_metric=Selectivity value_prefix== numeric_value=15
structure_as_smiles=COc1cc2c(cc1C(F)(F)F)N(C(=O)Nc1cncc(-c3ccccc3)c1)CC2 recorded_metric=Selectivity value_prefix== numeric_value=320
structure_as_smiles=COc1cc2c(cc1C(F)(F)F)N(C(=O)Nc1cccc(-c3cnccc3C)c1)CC2 recorded_metric=Selectivity value_prefix== numeric_value=400
structure_as_smiles=COc1cc2c(cc1C(F)(F)F)N(C(=O)Nc1cncc(-c3c(F)cccc3F)c1)CC2 recorded_metric=Selectivity value_prefix=> numeric_value=420
structure_as_smiles=Cc1cc2c(cc1C(F)(F)F)N(C(=O)Nc1ccc(Oc3cccnc3C)nc1)CC2 recorded_metric=Selectivity value_prefix== numeric_value=160
structure_as_smiles=COc1cc2c(cc1C(F)(F)F)N(C(=O)Nc1ccc(Cl)c(-c3cnccc3C)c1)CC2 recorded_metric=Selectivity value_prefix=> numeric_value=1500
structure_as_smiles=COc1cc2c(cc1C(F)(F)F)N(C(=O)Nc1cncc(-c3cnccc3C)c1)CC2 recorded_metric=Selectivity value_prefix== numeric_value=250
structure_as_smiles=COc1cc2c(cc1C(F)(F)F)N(C(=O)Nc1ccc(-c3cccnc3)nc1)CC2 recorded_metric=Selectivity value_prefix=> numeric_value=2000
structure_as_smiles=COc1cc2c(cc1C(F)(F)F)N(C(=O)Nc1cc(-c3cccnc3)ccc1F)CC2 recorded_metric=Selectivity value_prefix== numeric_value=4
structure_as_smiles=COc1cc2c(cc1C(F)(F)F)N(C(=O)Nc1ccc(-c3cccnc3)cc1)CC2 recorded_metric=Selectivity value_prefix== numeric_value=250
structure_as_smiles=COc1cc2c(cc1C(F)(F)F)N(C(=O)Nc1cccc(-c3cccnc3)c1Cl)CC2 recorded_metric=Selectivity value_prefix== numeric_value=25
structure_as_smiles=COc1cc2c(cc1C(F)(F)F)N(C(=O)Nc1cc(-c3ccccc3)cc(-c3cccnc3)c1)CC2 recorded_metric=Selectivity value_prefix== numeric_value=250
